target: Isoleucine--tRNA ligase (Escherichia coli K-12); test: Inhibition of recombinant Escherichia coli BL21(DE3) isoleucyl-tRNA synthetase expressed in Escherichia coli Rosetta 2 (DE3) assessed as reduction in tRNA aminoacylation preincubated for 10 mins in presence of [14C]-isoleucin and tRNA followed by ATP addition and measured after 6 mins by scintillation counting method
Sequence (P00956 whole entry): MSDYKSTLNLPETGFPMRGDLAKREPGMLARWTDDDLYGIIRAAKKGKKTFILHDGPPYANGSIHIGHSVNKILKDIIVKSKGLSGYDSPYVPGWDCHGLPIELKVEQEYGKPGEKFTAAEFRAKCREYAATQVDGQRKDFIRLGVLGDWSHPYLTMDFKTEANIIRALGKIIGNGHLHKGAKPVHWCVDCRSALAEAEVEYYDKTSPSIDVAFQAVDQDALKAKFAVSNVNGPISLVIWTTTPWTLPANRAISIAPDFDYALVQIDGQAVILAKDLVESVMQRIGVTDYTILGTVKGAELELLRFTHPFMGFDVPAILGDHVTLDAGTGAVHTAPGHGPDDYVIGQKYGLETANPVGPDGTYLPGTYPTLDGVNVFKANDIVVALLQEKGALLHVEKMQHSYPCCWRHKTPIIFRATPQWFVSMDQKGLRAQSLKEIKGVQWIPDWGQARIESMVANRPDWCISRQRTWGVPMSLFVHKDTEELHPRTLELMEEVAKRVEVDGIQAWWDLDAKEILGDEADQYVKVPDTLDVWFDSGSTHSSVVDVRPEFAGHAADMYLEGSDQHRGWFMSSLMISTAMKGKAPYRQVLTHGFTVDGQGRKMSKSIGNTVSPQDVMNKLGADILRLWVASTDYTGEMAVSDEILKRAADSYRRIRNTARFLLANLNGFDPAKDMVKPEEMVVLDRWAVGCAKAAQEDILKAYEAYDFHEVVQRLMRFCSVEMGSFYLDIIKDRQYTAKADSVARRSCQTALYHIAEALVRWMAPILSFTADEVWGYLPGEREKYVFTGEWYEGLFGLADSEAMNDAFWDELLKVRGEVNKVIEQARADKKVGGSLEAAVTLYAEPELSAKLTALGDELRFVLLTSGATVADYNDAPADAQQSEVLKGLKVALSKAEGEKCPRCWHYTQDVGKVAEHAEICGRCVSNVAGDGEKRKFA
attribute_measured: IC50

Request: Please give the documented IC50 of "CC[C@H](C)[C@H](N)C(=O)NS(=O)(=O)CC[C@H]1O[C@@H](n2cnc3c(N)ncnc32)[C@H](O)[C@@H]1O"
Response: 6.8 nM
